Test system: Carrageenin edema in rat's paw
Test: Carrageenin Edema Test in Rat's Paw (anti-inflammatory activity, Table 1)
Assay type: in vivo
Conditions: 100 mg/kg oral, hydrochloride, rat
Note to self: values exactly at 30% are True. So inhibition in vivo at 100 mg/kg at or above 30% is True, below is False.

QUERY: Check if inhibition in vivo at 100 mg/kg >= 30% (inclusive). Item: CC(C)CC(CCNc1nn(CCC(C)N2CCCCC2)c2ccc(O)cc12)N1CCCCC1 (stereo not shown) [(136)]
RESULT: False

QUERY: Check if inhibition in vivo at 100 mg/kg >= 30% (inclusive). Item: Oc1ccc2[nH]nc(NCCCN3CCC(O)CC3)c2c1 [(83)]
RESULT: True

QUERY: Check if inhibition in vivo at 100 mg/kg >= 30% (inclusive). Item: CCN(CC)CCCNc1nn(CCCN(CC)CC)c2c(Cl)cccc12 [(92)]
RESULT: True

QUERY: Check if inhibition in vivo at 100 mg/kg >= 30% (inclusive). Item: CCN(CC)CCCNc1n[nH]c2ccc(N)cc12 [(49)]
RESULT: True

QUERY: Check if inhibition in vivo at 100 mg/kg >= 30% (inclusive). Item: CCN(CC)CCCNc1nn(CCC(C)N(C)C)c2ccc(O)cc12 (stereo not shown) [(138)]
RESULT: False

QUERY: Check if inhibition in vivo at 100 mg/kg >= 30% (inclusive). Item: CCN(CC)C(CCNc1nn(CCC(C)N(C)C)c2ccc(Cl)cc12)CC(C)C (stereo not shown) [(111)]
RESULT: False

QUERY: Check if inhibition in vivo at 100 mg/kg >= 30% (inclusive). Item: CCN(CC)CCCn1nc(N)c2cc(O)ccc21 [(24)]
RESULT: True

QUERY: Check if inhibition in vivo at 100 mg/kg >= 30% (inclusive). Item: CC(CCNc1nn(CCC(C)N2CCCCC2)c2ccc(Cl)cc12)N(C)C (stereo not shown) [(107)]
RESULT: False

QUERY: Check if inhibition in vivo at 100 mg/kg >= 30% (inclusive). Item: CCN(CC)C(CCNc1n[nH]c2ccc(O)cc12)CC(C)C (stereo not shown) [(76)]
RESULT: True

###

Test system: Carrageenin edema in rat's paw
Assay: Carrageenin Edema Test in Rat's Paw (anti-inflammatory activity, Table 1)
Format: in vivo
Settings: 100 mg/kg oral, hydrochloride, rat
Reported property: inhibition in vivo at 100 mg/kg (%)
One number for each entry, in %.

# example entries with known answers
>>> result_number("Oc1ccc2[nH]nc(NCCCN3CCCCCC3)c2c1")
35
>>> result_number("CCN(CC)CCCNc1n[nH]c2c(I)cccc12")
53
>>> result_number("CCCCN(CCCC)CCCn1nc(N)c2cc(O)ccc21")
54
>>> result_number("CC(CCNc1n[nH]c2ccc(Cl)cc12)N1CCCCC1 (centres unmarked)")
54
>>> result_number("Clc1ccc2[nH]nc(NCCCN3CCC(Cl)CC3)c2c1")
65
>>> result_number("Oc1ccc2c(c1)c(NCCCN1CCC(Cl)CC1)nn2CCCN1CCOCC1")
29

// input: 3 compounds below; output: inhibition in vivo at 100 mg/kg for each
1. Nc1nn(CCCN2CCOCC2)c2ccc(O)cc12
2. CCN(CC)CCCNc1nn(CCC(C)N2CCCCC2)c2ccc(Cl)cc12 (centres unmarked)
3. CCN(CC)CCCNc1nn(CCCN2CCCCC2)c2ccc(O)cc12

RESULT:
46
30
29

// input: 2 compounds below; output: inhibition in vivo at 100 mg/kg for each
1. CCN(CC)CCCn1nc(N)c2c(O)cccc21
2. CN1CCN(CCCNc2nn(CCCN3CCCC3)c3ccc(O)cc23)CC1

RESULT:
[56, 26]

###

Tested on: Carrageenin edema in rat's paw
Experiment: Carrageenin Edema Test in Rat's Paw (anti-inflammatory activity, Table 1)
Assay type: in vivo
Conditions: 100 mg/kg oral, hydrochloride, rat
Reported property: inhibition in vivo at 100 mg/kg (%)
One number for each entry, in %.

# example entries with known answers
>>> result_number("CC(C)CC(CCNc1n[nH]c2ccc(Cl)cc12)N1CCCCC1 (stereo not drawn)")
40
>>> result_number("Oc1ccc2c(c1)c(NCCCN1CCCCC1)nn2CCCN1CCCCC1")
28
>>> result_number("Oc1ccc2c(c1)c(NCCCN1CCCCCC1)nn2CCCN1CCCC1")
28
>>> result_number("CC(CCNc1nn(CCCN2CCCCC2)c2ccc(O)cc12)N1CCCCC1 (stereo not drawn)")
28
>>> result_number("CCN(CC)CCCNc1n[nH]c2cccc(O)c12")
55

// input: 2 compounds below; output: inhibition in vivo at 100 mg/kg for each
1. CCN(CC)CCCNc1nn(CCCN(CC)CC)c2cc(O)ccc12
2. CC(CCn1nc(N)c2ccccc21)N1CCOCC1 (stereo not drawn)

RESULT:
[21, 39]

// input: 5 compounds below; output: inhibition in vivo at 100 mg/kg for each
1. CCN(CC)CCCNc1n[nH]c2cccc(Cl)c12
2. CC1CCCC(C)N1CCCNc1n[nH]c2ccc(Cl)cc12 (stereo not drawn)
3. CCN(CC)CCCn1nc(N)c2cc(Cl)ccc21
4. CCCCN(CCCC)CCCNc1n[nH]c2ccc(Cl)cc12
5. CC(C)CC(CCNc1nn(CCC(C)N2CCCCC2)c2ccc(Cl)cc12)N1CCCCC1 (stereo not drawn)

RESULT:
1. 61
2. 36
3. 55
4. 61
5. 22

// input: 3 compounds below; output: inhibition in vivo at 100 mg/kg for each
1. OC1CCN(CCCNc2n[nH]c3ccc(Cl)cc23)CC1
2. Nc1nn(CCCN2CCC(O)CC2)c2ccc(O)cc12
3. CCN(CC)CCCNc1nn(CCCN2CCOCC2)c2ccccc12

RESULT:
[46, 35, 30]

###

Test system: Carrageenin edema in rat's paw
Assay: Carrageenin Edema Test in Rat's Paw (anti-inflammatory activity, Table 1)
Assay type: in vivo
Conditions: 100 mg/kg oral, hydrochloride, rat
Note to self: values exactly at 30% are Yes. So inhibition in vivo at 100 mg/kg at or above 30% is Yes, below is No.

>>> class_name("CC(CCn1nc(N)c2cc(Cl)ccc21)N1CCCCC1 (stereo not shown)")
"Yes"
>>> class_name("CCN(CC)CCCn1nc(N)c2cc(N)ccc21")
"Yes"
>>> class_name("CCCCN(CCCC)CCCNc1n[nH]c2ccc(O)cc12")
"Yes"
>>> class_name("CC(CCn1nc(NCCCN2CCCCC2)c2cc(O)ccc21)N(C)C (stereo not shown)")
"No"
>>> class_name("CC1CCCCN1CCCNc1n[nH]c2ccc(Cl)cc12 (stereo not shown)")
"Yes"
>>> class_name("OC1CCN(CCCNc2nn(CCCN3CCOCC3)c3ccc(Cl)cc23)CC1")
"Yes"

Moving on to another compound below.
QUERY: Check if inhibition in vivo at 100 mg/kg >= 30% (inclusive). Item: CC(CCn1nc(NCCCN2CCCCC2)c2cc(O)ccc21)N1CCCCC1 (stereo not shown)
RESULT: No

###

Test system: Carrageenin edema in rat's paw
Assay: Carrageenin Edema Test in Rat's Paw (anti-inflammatory activity, Table 1)
Assay type: in vivo
Details: 100 mg/kg oral, hydrochloride, rat
Reported property: inhibition in vivo at 100 mg/kg

# example entries with known answers
>>> result("Nc1n[nH]c2c(O)cccc12 [(164), 3-Amino-7-hydroxyindazole]")
"42%"
>>> result("CC(CCNc1n[nH]c2ccc(Cl)cc12)N(C)C (stereo not drawn) [(53)]")
"48%"
>>> result("CC1CCCCN1CCCn1nc(N)c2cc(Cl)ccc21 (stereo not drawn) [(15)]")
"50%"

// input: 3 compounds below; output: inhibition in vivo at 100 mg/kg for each
1. Nc1nn(CCCN2CCCC2)c2ccc(O)cc12 [(43)]
2. Nc1nn(CCCN2CCCCCC2)c2ccc(O)cc12 [(41)]
3. CC1CCCC(C)N1CCCn1nc(N)c2cc(Cl)ccc21 (stereo not drawn) [(16)]

RESULT:
1: 36%; 2: 36%; 3: 33%

###

System: Carrageenin edema in rat's paw
Assay: Carrageenin Edema Test in Rat's Paw (anti-inflammatory activity, Table 1)
Type: in vivo
Details: 100 mg/kg oral, hydrochloride, rat
Note to self: values exactly at 40% are 1. So inhibition in vivo at 100 mg/kg at or above 40% is 1, below is 0.

>>> class_name("CCCCN(CCCC)CCCNc1nn(CCCN(CC)CC)c2ccc(Cl)cc12")
0
>>> class_name("Nc1nn(CCCCCCN2CCCCC2)c2ccc(O)cc12")
0
>>> class_name("CCN(CC)CCCNc1n[nH]c2c(N)cc(N)cc12")
1

QUERY: Check if inhibition in vivo at 100 mg/kg >= 40% (inclusive). Item: CCN(CC)CCCNc1n[nH]c2ccc(I)cc12
RESULT: 1

QUERY: Check if inhibition in vivo at 100 mg/kg >= 40% (inclusive). Item: CC(CCn1nc(N)c2cc(O)ccc21)N(C)C (stereo not drawn)
RESULT: 0

QUERY: Check if inhibition in vivo at 100 mg/kg >= 40% (inclusive). Item: CCN(CC)CCCNc1nn(CCCN(CC)CC)c2ccc(N)cc12
RESULT: 0
